# assay_target: human NTCP (Homo sapiens)
# Sequence (Q14973 1-349): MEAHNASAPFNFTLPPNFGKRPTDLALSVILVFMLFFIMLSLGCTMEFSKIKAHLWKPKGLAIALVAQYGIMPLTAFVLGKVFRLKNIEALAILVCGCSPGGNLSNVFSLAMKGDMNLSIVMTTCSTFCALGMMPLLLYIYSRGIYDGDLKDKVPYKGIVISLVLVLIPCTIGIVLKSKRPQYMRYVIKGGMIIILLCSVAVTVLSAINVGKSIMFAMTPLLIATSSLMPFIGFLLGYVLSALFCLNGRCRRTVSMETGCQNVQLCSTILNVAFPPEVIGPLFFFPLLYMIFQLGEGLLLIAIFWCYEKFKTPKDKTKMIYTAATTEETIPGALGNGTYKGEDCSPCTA
# assay_procedure: Screening taurocholate uptake assay (96-well, [14C]taurocholate, 10 µM drug)
# assay_setup: combined ranking of functional and binding screening assays
Structures can show the parent of a compound that is named as a salt.
// NB: equality with 600 counts as false (0); only Ranking score strictly below is true (1)

{"molecule": "COc1cc(C(=O)NCc2ccc(OCCN(C)C)cc2)cc(OC)c1OC [Trimethobenzamide hydrochloride]", "assay_target": "human NTCP (Homo sapiens)", "category": "false (0)"}
{"molecule": "CCOC(=O)C1=C(C)NC(C)=C(C(=O)OC)C1c1cccc(Cl)c1Cl (centres unmarked) [Felodipine]", "assay_target": "human NTCP (Homo sapiens)", "category": "true (1)"}
{"molecule": "COCC1=C(C(=O)OC(C)OC(=O)OC(C)C)N2C(=O)[C@@H](NC(=O)/C(=N\\OC)c3csc(N)n3)[C@H]2SC1 (some centres unmarked) [Cefpodoxime proxetil]", "assay_target": "human NTCP (Homo sapiens)", "category": "false (0)"}
{"molecule": "CN1CCN(c2c(F)cc3c(=O)c(C(=O)O)cn(CCF)c3c2F)CC1 [Fleroxacin]", "assay_target": "human NTCP (Homo sapiens)", "category": "false (0)"}
{"molecule": "CN(C)CCC(c1ccc(Br)cc1)c1ccccn1 (centres unmarked) [Brompheniramine maleate]", "assay_target": "human NTCP (Homo sapiens)", "category": "true (1)"}
{"molecule": "NC(=O)C[S+]([O-])C(c1ccccc1)c1ccccc1 (centres unmarked) [Modafinil]", "assay_target": "human NTCP (Homo sapiens)", "category": "true (1)"}
{"molecule": "C[N+]1(C)CCCC(OC(=O)C(O)(c2ccccc2)c2ccccc2)C1 (centres unmarked) [Mepenzolate bromide]", "assay_target": "human NTCP (Homo sapiens)", "category": "true (1)"}

====

# assay_target: UniProtKB Q14973
# assay_procedure: Screening taurocholate uptake assay (96-well, [14C]taurocholate, 10 µM drug)
# assay_setup: combined ranking from functional and binding assay B-scores
Where a name gives a salt, the structure may show the parent alone.
Quick list: Ranking score per entry.

{"molecule": "CCN(CC)C(=O)C1(c2ccccc2)CC1CN.Cl (stereo not drawn) [Milnacipran hydrochloride]", "Ranking score": 955.465}
{"molecule": "NCC(CC(=O)O)c1ccc(Cl)cc1 (racemic) [Baclofen (R,S)]", "Ranking score": 1069.07}
{"molecule": "Cl.N=C(N=C(N)N)N1CCOCC1 [Moroxidine hydrochloride]", "Ranking score": 1132.99}
{"molecule": "O=C(CCCN1CCN(c2ccccn2)CC1)c1ccc(F)cc1 [Azaperone]", "Ranking score": 931.399}
{"molecule": "CCN1C(=O)NC(c2ccccc2)C1=O (stereo not drawn) [Ethotoin]", "Ranking score": 1133.18}
{"molecule": "Cc1ccnc(NS(=O)(=O)c2ccc(N)cc2)n1 [Sulfamerazine]", "Ranking score": 923.898}
{"molecule": "Br.COc1ccc2c(c1)[C@]13CCCC[C@@H]1[C@H](C2)N(C)CC3.O", "Ranking score": 928.917}
{"molecule": "O.O=P(O)(O)C(O)(Cc1cccnc1)P(=O)(O)O [Risedronic acid monohydrate]", "Ranking score": 1045.06}
{"molecule": "Cc1scc2c1N(C(=O)CN1CCN(C)CC1)c1ccccc1NC2=O [Telenzepine dihydrochloride]", "Ranking score": 1037.8}
{"molecule": "CN(CCCCCCCCCCN(C)C(=O)Oc1cccc([N+](C)(C)C)c1)C(=O)Oc1cccc([N+](C)(C)C)c1 [Demecarium bromide]", "Ranking score": 853.475}
{"molecule": "CCCC(CCC)C(=O)O [Valproic acid]", "Ranking score": 1093.47}
{"molecule": "Cc1cn([C@H]2C[C@H](N=[N+]=[N-])[C@@H](CO)O2)c(=O)[nH]c1=O [Zidovudine, AZT]", "Ranking score": 985.737}
{"molecule": "CO[C@@]1(NC(=O)Cc2cccs2)C(=O)N2C(C(=O)O)=C(COC(N)=O)CS[C@@H]21 [Cefoxitin sodium salt]", "Ranking score": 868.493}
{"molecule": "O=C1c2ccccc2S(=O)(=O)N1CCCCN1CCN(c2ncccn2)CC1 [Ipsapirone]", "Ranking score": 1093.42}
{"molecule": "C1N2CN3CN1CN(C2)C3 [Methenamine]", "Ranking score": 906.386}
{"molecule": "CC(=O)O[C@]1(C(C)=O)CC[C@H]2[C@@H]3C=C(C)C4=CC(=O)CC[C@]4(C)[C@H]3CC[C@@]21C [Megestrol acetate]", "Ranking score": 869.581}
{"molecule": "CCOC(=O)[C@H](CCc1ccccc1)N[C@@H](C)C(=O)N1[C@H](C(=O)O)C[C@@H]2CCC[C@@H]21 [Ramipril]", "Ranking score": 1101.41}
{"molecule": "O=C(O)/C=C\\C(=O)O.O=C(O)/C=C\\C(=O)O.c1ccc2nc(N3CCNCC3)ccc2c1 [Quipazine dimaleate salt]", "Ranking score": 954.17}
{"molecule": "CN1C(=O)OC(C)(C)C1=O [Trimethadione]", "Ranking score": 860.791}
{"molecule": "O=C1CN2Cc3c(ccc(Cl)c3Cl)N=C2N1 [Anagrelide]", "Ranking score": 871.654}
{"molecule": "CN1CCN(CCCN2c3ccccc3Sc3ccc(S(=O)(=O)N(C)C)cc32)CC1.CS(=O)(=O)O.CS(=O)(=O)O [Thioproperazine dimesylate]", "Ranking score": 1068.06}
{"molecule": "C#C[C@]1(O)CC[C@H]2[C@@H]3CCC4=CCCC[C@@H]4[C@H]3CC[C@@]21C [Lynestrenol]", "Ranking score": 897.58}
{"molecule": "CC(NCCc1ccc(O)cc1)C(O)c1ccc(O)cc1 (stereo not drawn) [Ritodrine hydrochloride]", "Ranking score": 1111.92}
{"molecule": "CCC[C@@H]1C[C@@H](C(=O)N[C@@H]([C@H]2O[C@H](SC)[C@H](O)[C@@H](O)[C@H]2O)[C@@H](C)O)N(C)C1 [Lincomycin hydrochloride]", "Ranking score": 960.458}
{"molecule": "O=S(=O)(O)c1cc(O)ccc1O [Ethamsylate]", "Ranking score": 873.696}
{"molecule": "Cc1[nH]c(=O)c(C#N)cc1-c1ccncc1 [Milrinone]", "Ranking score": 877.639}
{"molecule": "CC1CCc2cc(F)cc3c(=O)c(C(=O)O)cn1c23 (stereo not drawn) [Flumequine]", "Ranking score": 855.599}
{"molecule": "c1ccc(CC2=NCCN2)cc1 [Tolazoline hydrochloride]", "Ranking score": 929.251}
{"molecule": "NNC(=O)c1ccncc1 [Isoniazid]", "Ranking score": 1117.92}
{"molecule": "CC[N+]1(C)CCCC(OC(=O)C(O)(c2ccccc2)c2ccccc2)C1 (stereo not drawn) [Pipenzolate bromide]", "Ranking score": 1014.24}
{"molecule": "Cc1ncc([N+](=O)[O-])n1CCO [Metronidazole]", "Ranking score": 878.042}
{"molecule": "CCCCOc1ccc(OCCCN2CCOCC2)cc1 [Pramoxine hydrochloride]", "Ranking score": 1022.18}
{"molecule": "CCN(CC)C(=O)Nc1ccc(OCC(O)CNC(C)(C)C)c(C(C)=O)c1 (stereo not drawn) [Celiprolol HCl]", "Ranking score": 1068.26}
{"molecule": "C=C(CC)C(=O)c1ccc(OCC(=O)O)c(Cl)c1Cl [Ethacrynic acid]", "Ranking score": 1005.99}
{"molecule": "CCCCNc1ccc(C(=O)OCCN(C)C)cc1.Cl [Tetracaïne hydrochloride]", "Ranking score": 1118.05}
{"molecule": "CNC(=C[N+](=O)[O-])NCCSCc1csc(CN(C)C)n1 [Nizatidine]", "Ranking score": 960.129}
